Form field: t½ ratio pH 7.4/pH 5.0 (one value per entry).
target: T1, Ebola virus GP with a C-terminal polyhistidine tag (Sino Biologicals, Catalog #40442-V08B1) (Ebola virus, UniProt P87666 33-650); experiment: SPR 37C, mAb captured, pH chase
T1 construct: also called EbolaGP.his; Ebola virus GP.his

binder: H1H17151P (antibody, V domains shown) VH: EVQLVESGGGLVQPGGSLRLSCAASGFTFSSYAMNWVRQAPGKGLEWVSVISGSGGWRNYADSVKGRITISRDNSKNTLYLQMNNLRAEDTAVYYCAKDRGATFGVVILGPPYYGMDVWGQGTTVTVSS VL: DIQMTQSPSSLSASVRDRVTITCRASQSISTYLNWYQQKPGKAPKLLIYAASSLQSGVPSRFSGSGSGTGFTLTISSLQPEDFATYYCQQSYSIPYTFGQGTKLEIK
t½ ratio pH 7.4/pH 5.0: 0.01
//
binder: H1M17354N (antibody, V domains shown, also called HCAF05C08-22) VH: QVQLVQSGAEVKKPGASVKVSCKASGYTFTSYYMHWVRQAPGQGLEWLGIINPSGGSTSYAQKFQGRVTMTRDTSTSTVYMELSSLRSEDTAVYYCARETGEAGEVFNYWGQGTQVTVSS VL: DIQMTQSPSSLSASVGDRVTITCRASQIISRYLNWYQHKPGKAPKVLIYAASTLQSGVPSRFSGSGSGTDFTLTISSLQPEDFATYYCQQSYSTPPITFGQGTRLEIK
t½ ratio pH 7.4/pH 5.0: 1.3
//
binder: H1H17203P (antibody, V domains shown) VH: QVQLVESGGGVVQPGRSLRLSCAASGFTFNNYGMHWVRQAPGMGLEWVAVIWHDGSDKYYADSVKGRFTISRDNSKNTLYLQMNSLRAEDTAVYYCARNWNLFDYWGQGTLVTVSS VL: DIQMTQSPSSLSASVGDRITITCRASQSISTYLHWYQQKPGKAPKLLIYAASTLQSGVPSRFSGSGSGTDFTLTISSLQPEDFATYYCQQSFSTPPINFGQGTKLEIK
t½ ratio pH 7.4/pH 5.0: 0.1
